- System: pathogen of the specimen
- assayText: Molecular phenotypic antimicrobial susceptibility test with direct PCR at various incubation timepoints (Table 7)
- Assay type: cell-based
- reportedConditions: E. coli isolate 1189, antibiotic incubation time 16 hours
measuredEndpoint: Molecular Antimicrobial Susceptibility Result

INSERT INTO results (compound, result) VALUES
  ('Cc1nnc(SCC2=C(C(=O)O)N3C(=O)[C@@H](NC(=O)Cn4cnnn4)[C@H]3SC2)s1 [Cefazolin]', 'Resistant'),
  ('CO[C@@]1(NC(=O)Cc2cccs2)C(=O)N2C(C(=O)O)=C(COC(N)=O)CS[C@@H]21 [Cefoxitin]', 'Resistant'),
  ('CO/N=C(\C(=O)N[C@@H]1C(=O)N2C(C(=O)O)=C(CSc3nc(=O)c(=O)[nH]n3C)CS[C@H]12)c1csc(N)n1 [Ceftriaxone]', 'Resistant'),
  ('CC1(C)S[C@@H]2[C@H](NC(=O)[C@H](N)c3ccccc3)C(=O)N2[C@H]1C(=O)O [Ampicillin]', 'Resistant');

----------
- Tested on: M. morganii
- assayText: Molecular phenotypic antimicrobial susceptibility test, specimen with two detected pathogens incubated together without isolation
- Format: cell-based, Morganella morganii
- reportedConditions: M. morganii in specimen with two detected pathogens (E. coli and M. morganii) incubated together; Ct of controls (average) 19.99
measuredEndpoint: Ct of Sensitive Breakpoint

INSERT INTO measurements (compound, targetdesc, measuredendpoint, number) VALUES
  ('CC1(C)S[C@@H]2[C@H](NC(=O)[C@H](N)c3ccccc3)C(=O)N2[C@H]1C(=O)O', 'M. morganii', 'Ct of Sensitive Breakpoint', 20.73),
  ('CO[C@@]1(NC(=O)Cc2cccs2)C(=O)N2C(C(=O)O)=C(COC(N)=O)CS[C@@H]21', 'M. morganii', 'Ct of Sensitive Breakpoint', 23.01),
  ('O=C1CN(/N=C/c2ccc([N+](=O)[O-])o2)C(=O)N1', 'M. morganii', 'Ct of Sensitive Breakpoint', 33.37),
  ('Cc1nnc(SCC2=C(C(=O)O)N3C(=O)[C@@H](NC(=O)Cn4cnnn4)[C@H]3SC2)s1', 'M. morganii', 'Ct of Sensitive Breakpoint', 21.60),
  ('CN(C)[C@@H]1C(O)=C(C(N)=O)C(=O)[C@@]2(O)C(O)=C3C(=O)c4c(O)cccc4[C@@](C)(O)[C@H]3C[C@@H]12', 'M. morganii', 'Ct of Sensitive Breakpoint', 31.64),
  ('CO/N=C(\C(=O)N[C@@H]1C(=O)N2C(C(=O)O)=C(CSc3nc(=O)c(=O)[nH]n3C)CS[C@H]12)c1csc(N)n1', 'M. morganii', 'Ct of Sensitive Breakpoint', 30.03),
  ('CO/N=C(\C(=O)N[C@@H]1C(=O)N2C(C(=O)[O-])=C(C[N+]3(C)CCCC3)CS[C@H]12)c1csc(N)n1 [Cefepime]', 'M. morganii', 'Ct of Sensitive Breakpoint', 29.72);

----------
- Test system: pathogen of the specimen
- assayText: Molecular phenotypic antimicrobial susceptibility test with direct PCR at various incubation timepoints (Table 7)
- Type: cell-based
- reportedConditions: E. coli isolate 1189, antibiotic incubation time 6 hours
measuredEndpoint: Molecular Antimicrobial Susceptibility Result

INSERT INTO measurements (entrysmiles, result) VALUES
  ('CO[C@@]1(NC(=O)Cc2cccs2)C(=O)N2C(C(=O)O)=C(COC(N)=O)CS[C@@H]21', 'Resistant'),
  ('Cc1nnc(SCC2=C(C(=O)O)N3C(=O)[C@@H](NC(=O)Cn4cnnn4)[C@H]3SC2)s1', 'Resistant');

Each recorded value in this set is attributed to patent US20250290117A1.
